TEST_SYSTEM: BipA (TypA or YihK) (Escherichia coli)
Sequence (P0DTT0 whole entry): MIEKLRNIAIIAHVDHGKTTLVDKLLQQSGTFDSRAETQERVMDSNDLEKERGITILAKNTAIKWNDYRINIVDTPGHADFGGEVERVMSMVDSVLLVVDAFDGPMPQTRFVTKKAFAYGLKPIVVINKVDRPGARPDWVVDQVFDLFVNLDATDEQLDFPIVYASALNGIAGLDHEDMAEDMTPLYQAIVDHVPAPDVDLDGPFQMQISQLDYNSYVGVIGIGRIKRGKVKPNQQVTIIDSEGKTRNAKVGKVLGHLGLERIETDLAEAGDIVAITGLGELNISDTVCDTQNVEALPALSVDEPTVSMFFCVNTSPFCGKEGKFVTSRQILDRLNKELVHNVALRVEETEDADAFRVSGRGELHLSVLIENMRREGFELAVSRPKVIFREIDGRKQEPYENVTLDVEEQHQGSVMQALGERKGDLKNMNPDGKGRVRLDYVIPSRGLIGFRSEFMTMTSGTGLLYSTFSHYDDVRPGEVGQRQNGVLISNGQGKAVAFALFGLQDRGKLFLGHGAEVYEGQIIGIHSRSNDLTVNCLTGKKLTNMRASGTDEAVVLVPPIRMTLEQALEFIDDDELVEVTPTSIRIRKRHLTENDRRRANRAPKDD
METHOD_DESCRIPTION: isothermal titration calorimetry; crystal structure […] A
Format: binding
VALUE_TYPE: Kd

Entry Nc1nc2c(ncn2[C@@H]2O[C@H](COP(=O)(O)OP(=O)(O)O)[C@@H](OP(=O)(O)OP(=O)(O)O)[C@H]2O)c(=O)[nH]1 [ppGpp, guanosine-3′, 5′-bis pyrophosphate] has what Kd?
41.7 µM
